Could you please report measured fold induction at 50 µM for the items listed next?
- Tested on: E. cloacae
- experiment: AK assay 384-well format, Prestwick library screening
- Type: cell-based, Enterobacter cloacae
- measurement-conditions: Enterobacter cloacae, 3 h; 50 μM final drug concentration; 384-well format; cutoff for positive-scoring molecules 3-fold increase; read-out: AK-based Prestwick Library Screening Results, E. cloacae (increase in extracellular AK activity)
Structures can show the parent of a compound that is named as a salt.
Numbers only.

>  <compound>
Cn1c(=O)c2c(ncn2CCO)n(C)c1=O [Etofylline]

>  <fold induction at 50 µM>
0.9

$$$$

Return reported fold induction at 50 µM values for all items listed beneath this line.
1. c1ccc(CN(CC2=NCCN2)c2ccccc2)cc1 [Antazoline hydrochloride]
2. CC(C)NCC(O)COc1cccc2[nH]ccc12 (stereo not shown) [Pindolol]
3. C#CCN(C)Cc1ccccc1 [Pargyline hydrochloride]
4. CN(C)CCC=C1c2ccccc2COc2ccccc21 [Doxepin hydrochloride]
5. N[C@@H]1C[C@H]1c1ccccc1 [Tranylcypromine hydrochloride]
6. C[C@H]1[C@H](NC(=O)/C(=N\OC(C)(C)C(=O)O)c2csc(N)n2)C(=O)N1S(=O)(=O)O [Aztreonam]

## Result
1. 0.8
2. 0.4
3. 0.9
4. 1
5. 0.9
6. 18.4
